# Tested on: NCI-H460 lung
# experimentDescription: NCI-60 one-dose screen, 48 h
# conditionNotes: 10 µM unless noted
About 83,000 compounds went through this panel and 20% of them were active in at least one assay; those are over-represented in the sample as a whole. Active and inactive are the calls of the source. How the source made its calls: active means growth percent below 10; inactive means the rest.
A correct response names exactly one class from active, inactive

> print(dat)
                                   compound       testedon  category
1  O=C1CCC23OC(C(O)c4ccccc4N12)C1C(Br)=NOC13 (stereo not given)  NCI-H460 lung  inactive
2                S=C(Nc1ccc(Cl)cc1)c1ccccn1  NCI-H460 lung  inactive
3      O=c1[nH]c2ccccc2cc1-c1nc2ccncc2[nH]1  NCI-H460 lung  inactive
4  COc1ccc(/C=C/C(=O)C(CC2CCC2)C(=O)/C=C/c2ccc(OC)c(OC)c2)cc1OC  NCI-H460 lung    active
5  COc1cc(C2=NN(c3ccccc3)C(c3cccc(Nc4ccnc5cc(C(F)(F)F)ccc45)c3)C2)cc(OC)c1OC (stereo not given)  NCI-H460 lung  inactive

Prompt line: Called result for CCCn1c2cc(OCc3cn(-c4ccc(Cl)cc4)nn3)ccc2c2ccnc(C)c21
Response line: inactive

Prompt line: Called result for C=C1C(=O)O[C@H]2[C@H]1CC/C(COC(=O)c1c[nH]c3ccccc13)=C\CC[C@@]1(C)O[C@@H]21
Response line: active

Prompt line: Called result for CC[C@H](Nc1ncnc2nc[nH]c12)c1nc2cccc(CC(=O)c3ccc(C(=O)NO)cc3)c2c(=O)n1-c1ccccc1
Response line: inactive

Prompt line: Called result for COc1ccc2nc3nc4ccc[nH]c4cc3c2c1
Response line: inactive

Prompt line: Called result for c1ccc(-c2n(Cc3ccc4ccccc4n3)cc[n+]2Cc2ccc3ccccc3n2)cc1
Response line: inactive

Hello, the source for this data is PubChem BioAssay (NCI), in case you need it.
